Target: human thrombin (Homo sapiens, UniProt P00734)
Assay: Fluorescence-based thrombin inhibition assay
Type: biochemical
MEASURED ENDPOINT: IC50

The reported IC50 of the compound CC(C)=CCc1cc([C@@H]2CC(=O)c3ccc(O)c(CC=C(C)C)c3O2)ccc1O [compound 11, glabrol] was > 100 µM

The reported IC50 of the compound O=C1C[C@@H](c2ccc(O[C@@H]3O[C@H](CO)[C@@H](O)[C@H](O)[C@H]3O)cc2)Oc2cc(O)ccc21 [compound 12, liquiritin] was > 100 µM

The reported IC50 of the compound CC1(C)[C@@H](O[C@H]2O[C@H](C(=O)O)[C@@H](O)[C@H](O)[C@H]2O[C@@H]2O[C@H](C(=O)O)[C@@H](O)[C@H](O)[C@H]2O)CC[C@]2(C)[C@H]3C(=O)C=C4[C@@H]5C[C@@](C)(C(=O)O)CC[C@]5(C)CC[C@@]4(C)[C@]3(C)CC[C@@H]12 [compound 19, glycyrrhizic acid] was > 100 µM

The reported IC50 of the compound COc1cc(O)ccc1/C=C/C(=O)c1ccc(O)cc1 [compound 6, echinatin] was 28.5 µM

###

Hi there, I'd appreciate the recorded pIC50 for every entry that follows.
When answering, recall that pIC50 equals minus log10 of the concentration in mol/L, and write that number alone.

Item COc1cc(O)c2c(=O)cc(-c3ccc(OC)c(-c4c(O)cc(O)c5c(=O)cc(-c6ccc(O)cc6)oc45)c3)oc2c1 [compound 22, Ginkgetin, reference compound] was tested on human thrombin (Homo sapiens, UniProt P00734); the reported pIC50 is 5.09

Item O=c1cc(-c2ccccc2)oc2cc(O)c(O)c(O)c12 [compound 23, Baicalein, reference compound] was tested on human thrombin (Homo sapiens, UniProt P00734); the reported pIC50 is 4.44

Item O=C(/C=C/c1ccc(O)cc1)c1ccc(O)cc1O [compound 2, isoliquiritigenin] was tested on human thrombin (Homo sapiens, UniProt P00734); the reported pIC50 is 4.75

###

Target: human thrombin (Homo sapiens)
pIC50: −log10 of the molar value.
Hi there, I'd appreciate the recorded pIC50 for every entry that follows.

The reported pIC50 of the compound CC(C)=CCc1cc(-c2oc3cc(O)cc(O)c3c(=O)c2O)ccc1O was < 4.00

The reported pIC50 of the compound COc1c(CC=C(C)C)c(O)cc2oc(=O)c(-c3ccc(O)cc3O)cc12 was < 4.00

The reported pIC50 of the compound O=C(/C=C/c1ccc(O[C@@H]2O[C@H](CO)[C@@H](O)[C@H](O)[C@H]2O)cc1)c1ccc(O)cc1O was 4.41

The reported pIC50 of the compound CC1(C)C=Cc2c(ccc3c2OC[C@@H](c2ccc(O)cc2O)C3)O1 was < 4.00

###

Hi there, I'd appreciate the recorded pIC50 for every entry that follows.
pIC50: −log10 of the molar value.

Item CC1(C)[C@@H](O)CC[C@]2(C)[C@H]3C(=O)C=C4[C@@H]5C[C@@](C)(C(=O)O)CC[C@]5(C)CC[C@@]4(C)[C@]3(C)CC[C@@H]12 was tested on UniProtKB P00734; the reported pIC50 is < 4.00

Item CC(C)=CCc1c(O)cc2oc(-c3ccc(O)cc3)c(O)c(=O)c2c1O was tested on UniProtKB P00734; the reported pIC50 is < 4.00

Item COc1c2c(cc3oc(=O)c4c5ccc(O)cc5oc4c13)OC(C)(C)CC2 was tested on UniProtKB P00734; the reported pIC50 is < 4.00
